Recorded pKd by entry
Target: T1, Siglec-8-Fc tagged protein (human Siglec-8 extracellular domain fused to an immunoglobulin Fc region) (human)
T1 construct: also called Siglec-8 Fc fusion protein
T1 sequence (chain, as listed by the source limits assumed): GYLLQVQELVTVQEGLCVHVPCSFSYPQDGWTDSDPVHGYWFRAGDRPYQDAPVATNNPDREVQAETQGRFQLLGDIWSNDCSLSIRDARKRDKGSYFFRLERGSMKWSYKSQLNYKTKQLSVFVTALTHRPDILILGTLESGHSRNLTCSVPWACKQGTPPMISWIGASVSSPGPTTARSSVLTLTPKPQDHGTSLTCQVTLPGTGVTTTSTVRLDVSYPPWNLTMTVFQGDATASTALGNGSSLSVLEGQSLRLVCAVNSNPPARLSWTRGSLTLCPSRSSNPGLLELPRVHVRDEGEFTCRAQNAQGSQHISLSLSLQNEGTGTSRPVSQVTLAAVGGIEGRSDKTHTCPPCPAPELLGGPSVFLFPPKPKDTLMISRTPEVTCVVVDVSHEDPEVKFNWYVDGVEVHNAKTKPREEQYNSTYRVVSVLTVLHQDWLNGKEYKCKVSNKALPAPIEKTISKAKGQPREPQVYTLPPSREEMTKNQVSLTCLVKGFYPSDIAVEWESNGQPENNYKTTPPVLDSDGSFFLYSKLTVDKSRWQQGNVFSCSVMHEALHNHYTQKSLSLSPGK
Assay: BLI (Octet Red 384), Siglec-8-Fc on anti-human capture sensors, Fab in solution
Method: Antibody affinity determination was also carried out by bio-layer interferometry (ForteBio). Binding of mouse, chimeric and humanized anti-Siglec-8 antibody Fab fragments to human Siglec-8 protein was measured on a ForteBio Octet Red 384. The assay was conducted at 25° C., at an RPM of 1000 in assay buffer. […] Results were blanked with an empty reference AHC sensor, and analyzed in ForteBio analysis software with 1:1 global fit parameters.
Notebook: values listed as pKd are -log10 of the concentration (mol/L).

mouse 2E2 Fab fragment (Fab, Fab made by papain digestion of the murine IgG1; also called murine 2E2 Fab) VH: QVQLKESGPGLVAPSQSLSITCTVSGFSLTIYGAHWVRQPPGKGLEWLGVIWAGGSTNYNSALMSRLSISKDNSKSQVFLKINSLQTDDTALYYCARDGSSPYYYSMEYWGQGTSVTVSS light: QIILTQSPAIMSASPGEKVSITCSATSSVSYMHWFQQKPGTSPKLWIYSTSNLASGVPVRFSGSGSGTSYSLTISRMEAEDAATYYCQQRSSYPFTFGSGTKLEIKADAAPTVSIFPPSSEQLTSGGASVVCFLNNFYPKDINVKWKIDGSERQNGVLNSWTDQDSKDSTYSMSSTLTLTKDEYERHNSYTCEATHKTSTSPIVKSFNRNEC; 9.27

Query: Entry HEKA Fab fragment (Fab, Fab made by papain digestion) VH: EVQLVESGGGLVQPGGSLRLSCAASGFSLTIYGAHWVRQAPGKGLEWVGVIWAGGSTNYNSALMSRFTISKDNSKNTVYLQMNSLRAEDTAVYYCARDGSSPYYYSMEYWGQGTTVTVSS light: EIVLTQSPATLSLSPGERATLSCSATSSVSYMHWFQQKPGQAPRLLIYSTSNLASGIPARFSGSGSGTDFTLTISSLEPEDFAVYYCQQRSSYPFTFGPGTKLDIKRTVAAPSVFIFPPSDEQLKSGTASVVCLLNNFYPREAKVQWKVDNALQSGNSQESVTEQDSKDSTYSLSSTLTLSKADYEKHKVYACEVTHQGLSSPVTKSFNRGEC has what pKd?
Response: 9.33

Query: Entry HEKF Fab fragment (Fab, Fab made by papain digestion) VH: EVQLVESGGGLVQPGGSLRLSCAASGFSLTIYGAHWVRQAPGKGLEWVGVIWAGGSTNYNSALMSRFTISKDNSKNTVYLQMNSLRAEDTAVYYCARDGSSPYYYSMEYWGQGTTVTVSS light: EIVLTQSPATLSLSPGERATLSCSATSSVSYMHWFQQKPGQAPRLLIYSTSNLASGIPARFSGSGSGTDYTLTISSLEPEDFAVYYCQQRSSYPFTFGPGTKLDIKRTVAAPSVFIFPPSDEQLKSGTASVVCLLNNFYPREAKVQWKVDNALQSGNSQESVTEQDSKDSTYSLSSTLTLSKADYEKHKVYACEVTHQGLSSPVTKSFNRGEC has what pKd?
Response: 9.23
